# Tested on: P388 leukemia ip, CD2F1 mice, survival T/C
# Protocol Notes: NCI In Vivo Anticancer Drug Screen. Data for tumor model P388 Leukemia (intraperitoneal) in CD2F1 (CDF1) mice
# Reported Conditions: endpoint: median survival time; dose: 100.0 mg/kg/injection; schedule: Q01DX009 (ip); vehicle: suspension in saline; higher = longer survival
Toxic doses and inconclusive results are not listed.
Below: a set of entries, each annotated with reported T/C.
Property Label: T/C

molecule=CCCCN(CCCC)Cc1c(C)[nH]c2ccc(N(C)C)cc2c1=O assay_value="103 % of control"
molecule=FC(F)(F)c1cc(NC(=S)SCc2ccc(Cl)cc2)ccc1Cl assay_value="90 % of control"
molecule="NC(=O)SCC(N)C(=O)O (centres undefined)" assay_value="121 % of control"
molecule=COc1ccc(CSC(=S)Nc2ccccc2C(F)(F)F)cc1 assay_value="91 % of control"

----------
# Test system: P388 leukemia ip, CD2F1 mice, survival T/C
# Protocol Notes: NCI In Vivo Anticancer Drug Screen. Data for tumor model P388 Leukemia (intraperitoneal) in CD2F1 (CDF1) mice
# Reported Conditions: endpoint: median survival time; dose: 12.5 mg/kg/injection; schedule: Q04DX003 (ip); vehicle: saline
Toxic doses and inconclusive results are not listed. The calls were made as follows: active = survival T/C of 150% or more; inactive = T/C below 125% in these data.
Labels: TRUE = active, FALSE = inactive

compound=Nc1ccc2nc3ccc(N)cc3[n+](-c3ccccc3)c2c1 class_label=FALSE
compound="NC(CC(=O)CCl)C(=O)O (centres undefined)" class_label=TRUE
compound="CC1CN1P1(N2CC2C)=NP(N2CC2C)(N2CC2C)=NP(N2CC2C)(N2CC2C)=N1 (centres undefined)" class_label=FALSE
compound=O=NN1CCCNC1=O class_label=FALSE

----------
# T/C listing for each entry below
# Test system: P388 leukemia ip, CD2F1 mice, survival T/C
# Protocol Notes: NCI In Vivo Anticancer Drug Screen. Data for tumor model P388 Leukemia (intraperitoneal) in CD2F1 (CDF1) mice
# Reported Conditions: endpoint: median survival time; dose: 50.0 mg/kg/injection; schedule: Q04DX003 (ip); vehicle: saline with Tween-80; higher = longer survival
Toxic doses and inconclusive results are not listed.
Property Label: T/C

molecule=CS(=O)(=O)OCCCCCCCCCOS(C)(=O)=O assay_value="122 % of control"
molecule=Cc1cc(C)c(N)c(Br)c1 assay_value="95 % of control"
molecule=COc1cc(C)nc2ccc(Cc3ccc4nc(C)cc(OC)c4c3)cc12 assay_value="91 % of control"
molecule=CNc1cccc2c1C(=O)c1ccccc1C2=O assay_value="93 % of control"
molecule="CN=P1(NC)NP(=NC)(NC)NP(=NC)(NC)NP(=NC)(NC)N1.[Cl-].[Cl-].[Cl-].[Cl-].[Pt+2] (stereo unspecified)" assay_value="120 % of control"
molecule="CC(=O)C1=C(O)C2(O)C(=O)c3c(c(C)c4ccc(C)c(O)c4c3O)CC2C(N)C1=O (stereo unspecified)" assay_value="111 % of control"
molecule=CC(=O)Nc1ccccc1C(C)=O assay_value="95 % of control"
molecule="CC(=O)OCC1OC(OC2=C(CC=C(C)C)C(=O)c3ccccc3C2=O)C(OC(C)=O)C(OC(C)=O)C1OC(C)=O (stereo unspecified)" assay_value="102 % of control"
molecule=O=C(C=C(C(F)(F)F)C(F)(F)F)c1ccco1 assay_value="95 % of control"
molecule=C=CCCCCCCCCC(=O)N(CCOC)CCOC assay_value="100 % of control"
molecule="CC(=O)OC1CC(n2cc(C)c(=O)[nH]c2=O)OC1COP(=O)(N1CC1)N1CC1 (stereo unspecified)" assay_value="112 % of control"
